- ASSAY PROCEDURE: Plasma pharmacokinetics of ALM201 in Phase I patients (validated LC-MS/MS, Phoenix WinNonlin)
- MEASUREMENT PARAMETERS: human, plasma, sc, 300 mg, Cmax, Gmean (CV), 300 mg SC, day 18 cycle 4, n = 1; plasma LC-MS/MS
No end group written: not given here.
OBSERVATION TYPE: Cmax (ng/mL)
The answer is to be given in ng/mL; state only the numeric part.

INPUT: Annotate the sequence IRQQPRDPPTETLELEVSPDPAS [ALM201] with its measured Cmax.
OUTPUT: 2140

====

- ASSAY PROCEDURE: Plasma pharmacokinetics of ALM201 in Phase I patients (validated LC-MS/MS, Phoenix WinNonlin)
- MEASUREMENT PARAMETERS: human, plasma, sc, 100 mg, Plasma concentration, geometric mean (CV%), 100 mg SC, day 18 cycle 1, 2 h after dosing, n = 2; LC-MS/MS
No end group written: not given here.
OBSERVATION TYPE: level at 2 h (ng/mL)
The answer is to be given in ng/mL; state only the numeric part.

INPUT: Annotate the sequence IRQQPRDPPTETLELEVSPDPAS [ALM201] with its measured level at 2 h.
OUTPUT: 2130

====

- ASSAY PROCEDURE: Plasma pharmacokinetics of ALM201 in Phase I patients (validated LC-MS/MS, Phoenix WinNonlin)
- MEASUREMENT PARAMETERS: human, plasma, sc, 300 mg, Plasma concentration, geometric mean (CV%), 300 mg SC, day 18 cycle 2, 0.5 h after dosing, n = 3; LC-MS/MS
No end group written: not given here.
OBSERVATION TYPE: level at 0.5 h (ng/mL)
The answer is to be given in ng/mL; state only the numeric part.

INPUT: Annotate the sequence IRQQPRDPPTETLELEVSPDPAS [ALM201] with its measured level at 0.5 h.
OUTPUT: 1990

====

- ASSAY PROCEDURE: Plasma pharmacokinetics of ALM201 in Phase I patients (validated LC-MS/MS, Phoenix WinNonlin)
- MEASUREMENT PARAMETERS: human, plasma, sc, 300 mg, Plasma concentration, geometric mean (CV%), 300 mg SC, day 18 cycle 1, 2 h after dosing, n = 3; LC-MS/MS
No end group written: not given here.
OBSERVATION TYPE: level at 2 h
Write the numeric value and append its unit.

INPUT: Annotate the sequence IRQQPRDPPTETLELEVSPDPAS [ALM201] with its measured level at 2 h.
OUTPUT: 2520 ng/mL

====

- ASSAY PROCEDURE: Plasma pharmacokinetics of ALM201 in Phase I patients (validated LC-MS/MS, Phoenix WinNonlin)
- MEASUREMENT PARAMETERS: human, plasma, sc, 20 mg, AUC0-t, Gmean (CV), 20 mg SC, day 1 cycle 1, n = 1; plasma LC-MS/MS
No end group written: not given here.
OBSERVATION TYPE: AUC(0-t)
Write the numeric value and append its unit.

INPUT: Annotate the sequence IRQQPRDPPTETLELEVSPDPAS [ALM201] with its measured AUC(0-t).
OUTPUT: 1040 ng·h/mL

====

- ASSAY PROCEDURE: Plasma pharmacokinetics of ALM201 in Phase I patients (validated LC-MS/MS, Phoenix WinNonlin)
- MEASUREMENT PARAMETERS: human, plasma, sc, 80 mg, Plasma concentration, geometric mean (CV%), 80 mg SC, day 1 cycle 1, 4 h after dosing, n = 3; LC-MS/MS
No end group written: not given here.
OBSERVATION TYPE: level at 4 h
Write the numeric value and append its unit.

INPUT: Annotate the sequence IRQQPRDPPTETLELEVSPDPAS [ALM201] with its measured level at 4 h.
OUTPUT: 556 ng/mL
